Catalogue of growth values
# Tested on: T-47D breast
# ASSAY DETAILS: NCI-60 one-dose screen, 48 h (100 = growth as untreated, 0 = no growth, -100 = all killed)
# DETAILS: 10 µM unless noted
Compounds without any hit were thinned out: in the full panel of roughly 83,000, 20% have a hit. Calls of active or inactive are those of the source. The calls were made as follows: active = growth percent below 10; inactive = the rest.
OBSERVABLE: growth

COMPOUND | ASSAY SYSTEM | OBSERVABLE | REPORTED MEASUREMENT
CCOC(=O)Nc1ccc2nc(N3CCCCCC3)sc2c1 | T-47D breast | growth | 41.6% (inactive)
CC(=O)Nc1c(Br)cc2c(c1Br)Cc1cc(Br)ccc1-2 | T-47D breast | growth | 38.9% (inactive)
CCOCCNc1ccc(S(=O)(=O)c2ccc(N)cc2)cc1N | T-47D breast | growth | 99.8% (inactive)
CCN1C(=O)N(CC)C2C1NN=c1s/c(=C\c3ccco3)c(=O)n12 (configuration not stated) | T-47D breast | growth | 27.8% (inactive)
O=C(CC(=O)c1ccccc1F)Nc1ccc([N+](=O)[O-])cc1 | T-47D breast | growth | 82.5% (inactive)
CCOC(=O)Cc1cc(Br)c(OCc2ccccc2)c(Br)c1 | T-47D breast | growth | 85.6% (inactive)
CCN1C(=O)N(CC)C2C1NN=c1s/c(=C\c3ccc(Br)cc3)c(=O)n12 (configuration not stated) | T-47D breast | growth | 54.3% (inactive)
CCOC(=O)c1cnc(SCC)nc1SC#N | T-47D breast | growth | 80.8% (inactive)
NS(=O)(=O)c1ccc(CCn2c(SCC(=O)N/N=C/c3cccnc3)nc3ccccc3c2=O)cc1 | T-47D breast | growth | 65.9% (inactive)
COC(=O)c1ccc2c(c1)nc(-c1ccc(Cl)cc1)n2-c1cc(C(C)(C)C)[nH]n1 | T-47D breast | growth | 76.9% (inactive)
O=C1CCCN1C(O)CCN(Cc1ccccc1)Cc1ccc(Cl)cc1 (configuration not stated) | T-47D breast | growth | 99.6% (inactive)
CCCCCCCCCCCCNC(=O)N[C@H](C(=O)N[C@H]1/C=C/CCNC(=O)/C=C/[C@H](C)NC1=O)C(C)C | T-47D breast | growth | -41.9% (active)
COc1nccc2c(Sc3ccccc3)nc(N)nc12 | T-47D breast | growth | 107% (inactive)
CCNC(=O)c1ccc2c(c1)nc(-c1ccc(Cl)cc1)n2-c1cc(C(C)(C)C)[nH]n1 | T-47D breast | growth | 51.7% (inactive)
O=C(CCCCCCN1CC(=O)N2[C@@H](c3ccc(Cl)c(Cl)c3)c3[nH]c4ccccc4c3C[C@H]2C1=O)NO | T-47D breast | growth | 27.9% (inactive)
Cc1ccccc1C1CC(=O)c2ccccc2C1C (configuration not stated) | T-47D breast | growth | 107% (inactive)
O=P(O)(O)C(O)(Cc1cccnc1)P(=O)(O)O | T-47D breast | growth | 76.6% (inactive)
Cc1c(C(N)=O)sc2ncn(CC(=O)NN=C3CCCCC3)c(=O)c12 | T-47D breast | growth | 103% (inactive)
N#Cc1ccc(-c2ccc(-c3cccs3)o2)cc1F | T-47D breast | growth | 23.7% (inactive)
COc1cc(C2CC(c3ccc(Cl)cc3)=NN2C(C)=O)ccc1Oc1ccnc2cc(Cl)ccc12 (configuration not stated) | T-47D breast | growth | 53.9% (inactive)
Clc1ccc(-c2cnc3nonc3n2)s1 | T-47D breast | growth | 58.4% (inactive)
NNC(=O)CSc1nc2scc(-c3ccccc3)c2c(=O)n1-c1ccccc1 | T-47D breast | growth | 104% (inactive)
O=C1OCC2=C1C(c1ccccc1)c1cc3c(cc1N2CCO)CCC3 (configuration not stated) | T-47D breast | growth | 37.8% (inactive)
COC(=O)CSc1ccc(Cl)cc1 | T-47D breast | growth | 98.7% (inactive)
COc1cc([N+](=O)[O-])cc(OC)c1OC | T-47D breast | growth | 112% (inactive)
Clc1cccc(CNc2c3ccccc3nc3ccccc23)c1 | T-47D breast | growth | 40.9% (inactive)
CC1=C(/C=C/C(C)=C/C=C(C(=O)O)\C(C)=C\C(=O)O)C(C)(C)CCC1 | T-47D breast | growth | 101% (inactive)
CN1C(=O)C(C2=NNC(c3ccccc3C(=O)O)C2)C(=O)N(C)C1=O (configuration not stated) | T-47D breast | growth | 87.4% (inactive)
CCCCCCCCCCCCCCCC1=NCCN1 | T-47D breast | growth | -15.4% (active)
C=C1C(=O)O[C@H]2[C@H]1CC/C(COC(=O)NCc1cn(C)c3ccccc13)=C\CC[C@@]1(C)O[C@@H]21 | T-47D breast | growth | -54.1% (active)
CC(C)(C)[Si](C)(C)OC1[C@@H](CNC(N)=O)O[C@@H](n2cnc3c(NC(=O)Nc4ccccc4)ncnc32)[C@H]1O[Si](C)(C)C(C)(C)C (some centres not stated) | T-47D breast | growth | 64.6% (inactive)
O=C(NO)c1ccc(CNc2cccc3nc(C4CC4)n(-c4ccccc4)c(=O)c23)cc1 | T-47D breast | growth | 22.9% (inactive)
CC(C)CCC(=O)[C@@H](C)[C@H]1[C@@H](OC2OCC(O)C(O)C2NS(C)(=O)=O)C[C@H]2[C@@H]3CC=C4C[C@@H](O)CC[C@]4(C)[C@H]3CC[C@]12C (some centres not stated) | T-47D breast | growth | 43.6% (inactive)
CN(C)N1C(=O)c2c(Cl)c(Cl)c(Cl)c(Cl)c2C1=O | T-47D breast | growth | 93% (inactive)
COc1cc(-c2nn(C(=O)NCCN3CCN(C)CC3)cc2-c2ccncc2)ccc1Cl | T-47D breast | growth | 62.2% (inactive)
COc1ccc(/C=C/c2nc3ccccc3c(=O)n2-c2ccc(C#Cc3ccc(C(C)(C)C)cc3)cc2C)c(OC)c1 | T-47D breast | growth | 85.5% (inactive)
NC(N)=N/N=C/c1cccc(Cl)c1Cl | T-47D breast | growth | 81.5% (inactive)
CCCCCCCCCCCCNC(=O)N[C@H](C(=O)N[C@H]1/C=C/OCCNC(=O)/C=C/[C@H](C(C)C)NC1=O)C(C)C | T-47D breast | growth | 47.6% (inactive)
Cc1ccncc1NC=O | T-47D breast | growth | 102% (inactive)
COc1ccc(C(=O)O)cc1.[Ag] | T-47D breast | growth | 92.6% (inactive)
O=C(Nc1ccc([N+](=O)[O-])cc1)c1cc2ccccc2cc1O | T-47D breast | growth | 1.61% (active)
O=C(O/C(=C/c1ccccc1)C(F)(F)F)c1ccccc1 | T-47D breast | growth | 101% (inactive)

Reference source for all entries: PubChem BioAssay (NCI)
